Cited source: ChEMBL document CHEMBL4196131

// Efficacy lookup, one value per entry
- measured.on: Estrogen receptor beta (Homo sapiens, UniProt Q92731)
- Sequence (Q92731 whole entry): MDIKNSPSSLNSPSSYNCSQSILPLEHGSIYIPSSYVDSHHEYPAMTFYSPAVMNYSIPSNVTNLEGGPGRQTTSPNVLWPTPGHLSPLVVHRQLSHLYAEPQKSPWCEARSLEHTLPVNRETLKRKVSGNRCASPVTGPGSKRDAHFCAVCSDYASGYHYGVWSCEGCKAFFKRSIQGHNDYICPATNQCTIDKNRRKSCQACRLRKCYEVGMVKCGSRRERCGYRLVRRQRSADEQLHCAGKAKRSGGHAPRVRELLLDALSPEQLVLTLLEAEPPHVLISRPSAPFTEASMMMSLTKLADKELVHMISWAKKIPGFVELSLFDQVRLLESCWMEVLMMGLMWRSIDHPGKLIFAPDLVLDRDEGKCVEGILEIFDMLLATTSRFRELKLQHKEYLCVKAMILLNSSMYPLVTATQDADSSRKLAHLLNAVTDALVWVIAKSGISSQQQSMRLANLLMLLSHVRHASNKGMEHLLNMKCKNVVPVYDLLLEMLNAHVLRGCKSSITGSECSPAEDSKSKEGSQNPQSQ
- method.description: Agonist activity at human ERbeta expressed in HEK293T cells after 24 hrs by ERE-based dual luciferase reporter gene assay relative to E2
- Assay type: cell-based
measurement.type: Efficacy (%)

- molecule: "O=S(=O)(Oc1ccc(F)cc1)C1CC2OC1C(c1ccc(/C=C/c3cc(O)cc(O)c3)cc1)=C2c1ccc(O)cc1 (stereo not drawn)"
  measurement.type: "Efficacy"
  readout.number: 45
- molecule: "Cc1ccccc1OS(=O)(=O)C1CC2OC1C(c1ccc(/C=C/c3cc(O)cc(O)c3)cc1)=C2c1ccc(O)cc1 (stereo not drawn)"
  measurement.type: "Efficacy"
  readout.number: 36
- molecule: "O=S(=O)(Oc1ccc(/C=C/c2ccccc2)cc1)C1CC2OC1C(c1ccc(O)cc1)=C2c1ccc(O)cc1 (stereo not drawn)"
  measurement.type: "Efficacy"
  readout.number: 25

* * *

- measured.on: Estrogen receptor (Homo sapiens) (UniProt P03372)
- method.description: Antagonist activity at human ERalpha expressed in HEK293T cells after 24 hrs by ERE-based dual luciferase reporter gene assay relative to E2
- Format: cell-based
Parameter: Efficacy. Scope: all listed entries.

- compound: "O=S(=O)(Oc1ccccc1)C1CC2OC1C(c1ccc(/C=C/c3ccccc3)cc1)=C2c1ccc(O)cc1 (stereo unspecified)"
  Efficacy, %: 34
- compound: "O=S(=O)(Oc1cccc(Cl)c1)C1CC2OC1C(c1ccc(/C=C/c3cc(O)cc(O)c3)cc1)=C2c1ccc(O)cc1 (stereo unspecified)"
  Efficacy, %: 4
- compound: "Cc1ccc(OS(=O)(=O)C2CC3OC2C(c2ccc(/C=C/c4cc(O)cc(O)c4)cc2)=C3c2ccc(O)cc2)cc1 (stereo unspecified)"
  Efficacy, %: 1
- compound: "O=S(=O)(Oc1ccccc1C(F)(F)F)C1CC2OC1C(c1ccc(/C=C/c3cc(O)cc(O)c3)cc1)=C2c1ccc(O)cc1 (stereo unspecified)"
  Efficacy, %: 3
- compound: "O=S(=O)(Oc1cccc2ccccc12)C1CC2OC1C(c1ccc(/C=C/c3cc(O)cc(O)c3)cc1)=C2c1ccc(O)cc1 (stereo unspecified)"
  Efficacy, %: -4
- compound: "O=S(=O)(Oc1ccc(Cl)cc1)C1CC2OC1C(c1ccc(/C=C/c3cc(O)cc(O)c3)cc1)=C2c1ccc(O)cc1 (stereo unspecified)"
  Efficacy, %: 11
- compound: "COc1cc(/C=C/c2ccc(C3=C(c4ccc(O)cc4)C4CC(S(=O)(=O)Oc5ccc(Br)cc5)C3O4)cc2)cc(OC)c1 (stereo unspecified)"
  Efficacy, %: 97
- compound: "O=S(=O)(Oc1ccc(F)cc1)C1CC2OC1C(c1ccc(/C=C/c3cc(O)cc(O)c3)cc1)=C2c1ccc(O)cc1 (stereo unspecified)"
  Efficacy, %: 7
- compound: "Cc1ccccc1OS(=O)(=O)C1CC2OC1C(c1ccc(/C=C/c3cc(O)cc(O)c3)cc1)=C2c1ccc(O)cc1 (stereo unspecified)"
  Efficacy, %: 36
- compound: "O=S(=O)(Oc1ccccc1Cl)C1CC2OC1C(c1ccc(/C=C/c3cc(O)cc(O)c3)cc1)=C2c1ccc(O)cc1 (stereo unspecified)"
  Efficacy, %: 49
- compound: "O=S(=O)(Oc1cccc(C(F)(F)F)c1)C1CC2OC1C(c1ccc(/C=C/c3cc(O)cc(O)c3)cc1)=C2c1ccc(O)cc1 (stereo unspecified)"
  Efficacy, %: -10

* * *

- measured.on: Estrogen receptor (Homo sapiens)
- method.description: Antagonist activity at human ERalpha expressed in HEK293T cells after 24 hrs by ERE-based dual luciferase reporter gene assay

- compound: "O=S(=O)(Oc1cccc(/C=C/c2cc(O)cc(O)c2)c1)C1CC2OC1C(c1ccc(O)cc1)=C2c1ccc(O)cc1 (stereo not drawn)"
  IC50: "1410 nM"
- compound: "COc1cc(/C=C/c2cccc(OS(=O)(=O)C3CC4OC3C(c3ccc(O)cc3)=C4c3ccc(O)cc3)c2)cc(OC)c1 (stereo not drawn)"
  IC50: "738 nM"
- compound: "O=S(=O)(Oc1ccccc1)C1CC2OC1C(c1ccc(/C=C/c3ccccc3)cc1)=C2c1ccc(O)cc1 (stereo not drawn)"
  IC50: "1030 nM"

* * *

- measured.on: Estrogen receptor beta (Homo sapiens)
- method.description: Antagonist activity at human ERbeta expressed in HEK293T cells after 24 hrs by ERE-based dual luciferase reporter gene assay relative to E2
- Type: cell-based
- Set-up: concentration or dose not given beside the values
# label = 1 if Efficacy >= 80% else 0

- compound: "O=S(=O)(Oc1ccc(/C=C/c2ccccc2)cc1)C1CC2OC1C(c1ccc(O)cc1)=C2c1ccc(O)cc1 (configuration not stated)"
  measured.on: "Estrogen receptor beta (Homo sapiens)"
  cat: 0
- compound: "O=S(=O)(Oc1ccc(/C=C/c2cc(O)cc(O)c2)cc1)C1CC2OC1C(c1ccc(O)cc1)=C2c1ccc(O)cc1 (configuration not stated)"
  measured.on: "Estrogen receptor beta (Homo sapiens)"
  cat: 1
- compound: "O=S(=O)(Oc1cccc(O)c1)C1CC2OC1C(c1ccc(/C=C/c3cc(O)cc(O)c3)cc1)=C2c1ccc(O)cc1 (configuration not stated)"
  measured.on: "Estrogen receptor beta (Homo sapiens)"
  cat: 1
- compound: "O=S(=O)(Oc1ccc(O)cc1)C1CC2OC1C(c1ccc(/C=C/c3cc(O)cc(O)c3)cc1)=C2c1ccc(O)cc1 (configuration not stated)"
  measured.on: "Estrogen receptor beta (Homo sapiens)"
  cat: 1
- compound: "O=S(=O)(Oc1ccc(Cl)cc1)C1CC2OC1C(c1ccc(/C=C/c3cc(O)cc(O)c3)cc1)=C2c1ccc(O)cc1 (configuration not stated)"
  measured.on: "Estrogen receptor beta (Homo sapiens)"
  cat: 0
- compound: "COc1cccc(OS(=O)(=O)C2CC3OC2C(c2ccc(/C=C/c4cc(O)cc(O)c4)cc2)=C3c2ccc(O)cc2)c1 (configuration not stated)"
  measured.on: "Estrogen receptor beta (Homo sapiens)"
  cat: 1

* * *

- measured.on: Estrogen receptor beta (Homo sapiens, UniProt Q92731)
- method.description: Agonist activity at human ERbeta expressed in HEK293T cells after 24 hrs by ERE-based dual luciferase reporter gene assay
pEC50: −log10 of the molar value.
Criterion: pEC50 meeting or surpassing 6. Met: criterion met. Not met: criterion not met.

- molecule: "Cc1ccccc1OS(=O)(=O)C1CC2OC1C(c1ccc(/C=C/c3cc(O)cc(O)c3)cc1)=C2c1ccc(O)cc1 (centres undefined)"
  measured.on: "Estrogen receptor beta (Homo sapiens, UniProt Q92731)"
  cat: "criterion met"
- molecule: "O=S(=O)(Oc1cccc(C(F)(F)F)c1)C1CC2OC1C(c1ccc(/C=C/c3cc(O)cc(O)c3)cc1)=C2c1ccc(O)cc1 (centres undefined)"
  measured.on: "Estrogen receptor beta (Homo sapiens, UniProt Q92731)"
  cat: "criterion not met"
- molecule: "COc1cc(/C=C/c2ccc(OS(=O)(=O)C3CC4OC3C(c3ccc(O)cc3)=C4c3ccc(O)cc3)cc2)cc(OC)c1 (centres undefined)"
  measured.on: "Estrogen receptor beta (Homo sapiens, UniProt Q92731)"
  cat: "criterion met"
- molecule: "O=S(=O)(Oc1ccc(F)cc1)C1CC2OC1C(c1ccc(/C=C/c3cc(O)cc(O)c3)cc1)=C2c1ccc(O)cc1 (centres undefined)"
  measured.on: "Estrogen receptor beta (Homo sapiens, UniProt Q92731)"
  cat: "criterion met"
- molecule: "O=S(=O)(Oc1cccc2ccccc12)C1CC2OC1C(c1ccc(/C=C/c3cc(O)cc(O)c3)cc1)=C2c1ccc(O)cc1 (centres undefined)"
  measured.on: "Estrogen receptor beta (Homo sapiens, UniProt Q92731)"
  cat: "criterion met"
- molecule: "COc1cccc(OS(=O)(=O)C2CC3OC2C(c2ccc(/C=C/c4cc(O)cc(O)c4)cc2)=C3c2ccc(O)cc2)c1 (centres undefined)"
  measured.on: "Estrogen receptor beta (Homo sapiens, UniProt Q92731)"
  cat: "criterion met"
- molecule: "COc1cc(/C=C/c2ccc(C3=C(c4ccc(O)cc4)C4CC(S(=O)(=O)Oc5ccccc5)C3O4)cc2)cc(OC)c1 (centres undefined)"
  measured.on: "Estrogen receptor beta (Homo sapiens, UniProt Q92731)"
  cat: "criterion not met"
- molecule: "O=S(=O)(Oc1cccc(Cl)c1)C1CC2OC1C(c1ccc(/C=C/c3cc(O)cc(O)c3)cc1)=C2c1ccc(O)cc1 (centres undefined)"
  measured.on: "Estrogen receptor beta (Homo sapiens, UniProt Q92731)"
  cat: "criterion met"

* * *

- measured.on: Estrogen receptor (Homo sapiens) (UniProt P03372)
- Sequence (whole entry): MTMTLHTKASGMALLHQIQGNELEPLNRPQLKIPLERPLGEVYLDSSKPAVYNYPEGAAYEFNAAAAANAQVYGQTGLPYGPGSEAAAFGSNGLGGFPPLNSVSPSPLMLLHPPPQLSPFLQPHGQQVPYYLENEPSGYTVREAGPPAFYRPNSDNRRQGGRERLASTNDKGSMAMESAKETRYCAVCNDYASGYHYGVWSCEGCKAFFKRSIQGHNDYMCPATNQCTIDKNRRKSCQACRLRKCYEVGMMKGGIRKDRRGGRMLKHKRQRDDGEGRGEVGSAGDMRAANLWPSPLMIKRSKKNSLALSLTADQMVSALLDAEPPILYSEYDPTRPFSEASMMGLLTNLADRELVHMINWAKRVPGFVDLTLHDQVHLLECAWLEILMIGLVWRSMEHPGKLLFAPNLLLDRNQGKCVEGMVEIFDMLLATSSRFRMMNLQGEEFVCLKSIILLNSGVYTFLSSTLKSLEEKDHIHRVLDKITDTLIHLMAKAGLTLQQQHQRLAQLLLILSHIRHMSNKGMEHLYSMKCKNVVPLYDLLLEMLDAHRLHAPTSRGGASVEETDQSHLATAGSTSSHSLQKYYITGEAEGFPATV
- method.description: Agonist activity at human ERalpha expressed in HEK293T cells after 24 hrs by ERE-based dual luciferase reporter gene assay relative to E2
- Assay type: cell-based
Label criterion met when Efficacy is at or above 20%; otherwise label criterion not met.

- compound: "Cc1ccccc1OS(=O)(=O)C1CC2OC1C(c1ccc(/C=C/c3cc(O)cc(O)c3)cc1)=C2c1ccc(O)cc1 (stereo unspecified)"
  cat: "criterion met"
- compound: "Cc1ccc(OS(=O)(=O)C2CC3OC2C(c2ccc(/C=C/c4cc(O)cc(O)c4)cc2)=C3c2ccc(O)cc2)cc1 (stereo unspecified)"
  cat: "criterion met"
- compound: "O=S(=O)(Oc1ccccc1Cl)C1CC2OC1C(c1ccc(/C=C/c3cc(O)cc(O)c3)cc1)=C2c1ccc(O)cc1 (stereo unspecified)"
  cat: "criterion met"
- compound: "COc1cc(/C=C/c2cccc(OS(=O)(=O)C3CC4OC3C(c3ccc(O)cc3)=C4c3ccc(O)cc3)c2)cc(OC)c1 (stereo unspecified)"
  cat: "criterion not met"
- compound: "CCc1ccccc1OS(=O)(=O)C1CC2OC1C(c1ccc(/C=C/c3cc(OC)cc(OC)c3)cc1)=C2c1ccc(O)cc1 (stereo unspecified)"
  cat: "criterion not met"
- compound: "O=S(=O)(Oc1cccc(Cl)c1)C1CC2OC1C(c1ccc(/C=C/c3cc(O)cc(O)c3)cc1)=C2c1ccc(O)cc1 (stereo unspecified)"
  cat: "criterion not met"
- compound: "O=S(=O)(Oc1ccc(-c2ccccc2)cc1)C1CC2OC1C(c1ccc(/C=C/c3cc(O)cc(O)c3)cc1)=C2c1ccc(O)cc1 (stereo unspecified)"
  cat: "criterion met"
- compound: "O=S(=O)(Oc1ccc(O)cc1)C1CC2OC1C(c1ccc(/C=C/c3cc(O)cc(O)c3)cc1)=C2c1ccc(O)cc1 (stereo unspecified)"
  cat: "criterion not met"
- compound: "Cc1cccc(OS(=O)(=O)C2CC3OC2C(c2ccc(/C=C/c4cc(O)cc(O)c4)cc2)=C3c2ccc(O)cc2)c1 (stereo unspecified)"
  cat: "criterion met"
- compound: "O=S(=O)(Oc1cccc(O)c1)C1CC2OC1C(c1ccc(/C=C/c3cc(O)cc(O)c3)cc1)=C2c1ccc(O)cc1 (stereo unspecified)"
  cat: "criterion not met"
- compound: "O=S(=O)(Oc1ccc(Br)cc1)C1CC2OC1C(c1ccc(/C=C/c3cc(O)cc(O)c3)cc1)=C2c1ccc(O)cc1 (stereo unspecified)"
  cat: "criterion not met"
- compound: "O=S(=O)(Oc1ccc(F)cc1)C1CC2OC1C(c1ccc(/C=C/c3cc(O)cc(O)c3)cc1)=C2c1ccc(O)cc1 (stereo unspecified)"
  cat: "criterion not met"
- compound: "O=S(=O)(Oc1cccc(/C=C/c2cc(O)cc(O)c2)c1)C1CC2OC1C(c1ccc(O)cc1)=C2c1ccc(O)cc1 (stereo unspecified)"
  cat: "criterion not met"
- compound: "O=S(=O)(Oc1ccccc1C(F)(F)F)C1CC2OC1C(c1ccc(/C=C/c3cc(O)cc(O)c3)cc1)=C2c1ccc(O)cc1 (stereo unspecified)"
  cat: "criterion not met"
- compound: "O=S(=O)(Oc1ccccc1)C1CC2OC1C(c1ccc(/C=C/c3cc(O)cc(O)c3)cc1)=C2c1ccc(O)cc1 (stereo unspecified)"
  cat: "criterion met"
